# IC50 listing for each entry below
System: MDA-MB-231 (ER−)
Experiment: MTT growth inhibition assay, MDA-MB-231 breast cancer cells
Format: cell-based
Settings: Table 2 (repeat run with additional compounds), 8 days
MEASURED_PARAMETER: IC50 (µM)

• Cc1cc([C@H]2Oc3cc(O)cc(O)c3C[C@H]2OC(=O)c2cc(O)c(O)c(O)c2)cc(C)c1O = 46.8
• Cc1cc([C@H]2Oc3cc(O)cc(O)c3CC2OC(=O)c2cc(O)c(O)c(O)c2)cc(C)c1O (stereo partly shown) = 2.98
• Cc1cc(C(=O)O[C@@H]2Cc3c(O)cc(O)cc3O[C@@H]2c2cc(C)c(O)c(C)c2)cc(C)c1O = 10.2
• COc1cc(C(=O)O[C@@H]2Cc3c(C)cc(C)cc3O[C@@H]2c2cc(O)c(O)c(O)c2)cc(OC)c1OC = 7.76
